target: TR-β (Homo sapiens); assay: In vitro TR-β activity (in-house protocol); assay type: cell-based; settings: Conc. 1 nM; read-out: TR-β Fold Induction w.r.t T3(100 nm)
assay.metric: fold induction at 0.001 µM

Below: 3 compounds and their reported fold induction at 0.001 µM.
O=C(O)CON=Cc1cc(Br)c(Oc2ccc(O)c(C(=O)c3ccc(Cl)cc3)c2)c(Br)c1    10.2
O=C(O)CON=Cc1cc(Br)c(Oc2ccc(O)c(C(=O)c3cccc(Cl)c3)c2)c(Br)c1    14
O=C(O)CON=Cc1cc(Cl)c(Oc2ccc(O)c(Cc3ccccc3)c2)c(Cl)c1    14.8

A. O=C(O)CON=Cc1cc(Cl)c(Oc2ccc(O)c(-c3ccccc3)c2)c(Cl)c1
B. CC(C)c1cc(Oc2c(Br)cc(C=NOC(C)(C)C(=O)O)cc2Br)ccc1O
Asked: Field: entry with larger fold induction at 0.001 µM (options A / B ). // caller expects the label of the chosen entry
Given back: B

###

Target: UniProt P10828
Sequence (P10828 1-461): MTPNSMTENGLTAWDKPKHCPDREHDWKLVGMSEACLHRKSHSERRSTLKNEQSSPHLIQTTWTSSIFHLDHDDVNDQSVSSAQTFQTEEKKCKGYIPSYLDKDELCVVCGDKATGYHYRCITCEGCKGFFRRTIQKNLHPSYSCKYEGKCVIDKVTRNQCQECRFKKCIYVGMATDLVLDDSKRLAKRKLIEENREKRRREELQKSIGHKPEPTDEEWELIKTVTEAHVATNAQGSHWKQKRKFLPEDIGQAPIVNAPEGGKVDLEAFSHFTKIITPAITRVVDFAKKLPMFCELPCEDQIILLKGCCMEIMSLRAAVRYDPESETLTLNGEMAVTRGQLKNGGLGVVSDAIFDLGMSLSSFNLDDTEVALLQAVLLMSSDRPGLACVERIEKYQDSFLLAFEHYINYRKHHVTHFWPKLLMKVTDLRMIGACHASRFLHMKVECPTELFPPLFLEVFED
Assay: In vitro TR-β activity (in-house protocol)
Format: cell-based
Conditions: Conc. 1000 nM; read-out: TR-β Fold Induction w.r.t T3(100 nm)
Description: In vitro TR-α & TR-β activities were determined as per in-house protocols and the results of representative compounds are provided in tables 1 & 2 below as a proof of the efficacies of the novel class of compounds disclosed above.
assay.metric: fold induction at 1 µM

Below: 6 compounds and their reported fold induction at 1 µM.
CC(C)c1cc(Oc2c(Cl)cc(C=NOCC(=O)O)cc2Cl)ccc1O [Example 1]    53.4
CC(ON=Cc1cc(Br)c(Oc2ccc(O)c(S(=O)(=O)NC3CCCCC3)c2)c(Br)c1)C(=O)O (centres unmarked) [Example 39]    40.4
CC(C)c1cc(Oc2c(Br)cc(C=NOCC(=O)O)cc2Br)ccc1O [Example 3]    138
CC(C)NS(=O)(=O)c1cc(Oc2c(Br)cc(C=NOC(C)C(=O)O)cc2Br)ccc1O (centres unmarked) [Example 37]    60.5
CCc1cc(Oc2c(Br)cc(C=NOC(C)C(=O)O)cc2Br)ccc1O (centres unmarked) [Example 25]    86.7
CC(C)c1cc(Oc2c(Br)cc(C=NOC(C)(C)C(=O)O)cc2Br)ccc1O [Example 12]    67.4

I. O=C(O)CON=Cc1cc(Cl)c(Oc2ccc(O)c(-c3ccccc3)c2)c(Cl)c1 [Example 4]
II. CCC(ON=Cc1cc(Br)c(Oc2ccc(O)c(C(C)C)c2)c(Br)c1)C(=O)O (centres unmarked) [Example 13]
Asked: Field: entry with larger fold induction at 1 µM (options I / II ). // caller expects the label of the chosen entry
Given back: II
(II: 94.6, I: 64.4)
